Data credit: patent US12275737B2

test: Pharmacokinetics after oral capsule in male beagle dogs; assay type: in vivo; settings: male, beagle, dog, plasma, po, 5 mg/kg, 5 mg/kg (as free base)
Where a name gives a salt, the structure may show the parent alone.
readout label: AUC(0-t) (ng·h/mL)
Give bare numbers, in ng·h/mL.

[in] I'd like to know its AUC(0-t). The compound in question is CN1CCN(Cc2ccc(-c3cn([C@H]4CC[C@H](O)CC4)c4nc(NCCC5CC5)ncc34)cc2)CC1 [Crystal Form 1, trihydrochloride]
[out] 1400

====

assay: Determination of saturated solubility; format: physicochemical; conditions: water, 37 °C, pH 1, simulated gastric fluid, thermodynamic from solid, pH 1.0, water, shaken 4 hours
Counter-ions that a name gives are not always drawn.
readout label: solubility at 4 h
Respond with the figure and its unit, in that order.

[in] I'd like to know its solubility at 4 h. The molecule in question is CN1CCN(Cc2ccc(-c3cn([C@H]4CC[C@H](O)CC4)c4nc(NCCC5CC5)ncc34)cc2)CC1 [Crystal Form 1, trihydrochloride]
[out] 587 mg/mL

====

assay: Pharmacokinetics after oral capsule in male beagle dogs; type: in vivo; conditions: male, beagle, dog, plasma, po, 5 mg/kg, 5 mg/kg (as free base), plasma, read-out: Tmax
Where a name gives a salt, the structure may show the parent alone.
readout label: Tmax (h)
Numbers only, in h.

[in] I'd like to know its Tmax. The compound in question is CN1CCN(Cc2ccc(-c3cn([C@H]4CC[C@H](O)CC4)c4nc(NCCC5CC5)ncc34)cc2)CC1 [Crystal Form 1, trihydrochloride]
[out] 2.67
